target: HIV protease (Human immunodeficiency virus type 1 group M subtype B, UniProt P04585)
Entries whose IC50 is below 0.2 µM take Criterion met; entries at or above 0.2 µM take Criterion not met.

## Task Dear colleague, could you confirm whether IC50 of CC[C@H](C)[C@H](NC(=O)[C@H](CCC(N)=O)NC(=O)[C@H](CC(C)(C)C)NC[C@H](Cc1ccccc1)NC(=O)[C@@H](NC(C)=O)C(C)C)C(N)=O [Example 21, Ac-Val-Pheψ[CH₂NH]Tba-Gln-Ile-NH₂] falls below 0.2 µM? Thanks.
## Result Criterion not met

## Task How about this compound: CC[C@H](C)[C@H](NC(=O)[C@H](CCC(N)=O)NC(=O)[C@H](CC(C)C)NC[C@H](Cc1ccccc1)NC(=O)[C@@H](NC(C)=O)[C@@H](C)CC)C(N)=O [Example 16, Ac-Ile-Pheψ[CH₂NH]Leu-Gln-Ile-NH₂]
## Result Criterion met

## Task How about this compound: CC[C@H](C)[C@H](NC(=O)[C@H](CCC(=O)O)NC(=O)[C@H](CC(C)C)NC[C@H](Cc1ccccc1)NC(=O)[C@@H](NC(C)=O)C(C)C)C(N)=O [Example 12, Ac-Val-Pheψ[CH₂NH]Leu-Glu-Ile-NH₂]
## Result Criterion met

## Task How about this compound: CC[C@H](C)[C@H](NC(=O)[C@H](CCC(N)=O)NC(=O)[C@H](CC(C)C)NC[C@H](Cc1ccccc1)NC(=O)[C@@H](NC(=O)[C@H](C)O)C(C)C)C(N)=O [Example 19]
## Result Criterion not met

## Task How about this compound: CC(=O)N[C@H](C(=O)N[C@@H](CC1CCCCC1)[C@@H](O)CC(=O)N[C@@H](CC(C)C)C(=O)N[C@@H](Cc1ccccc1)C(N)=O)C(C)C [Example 5, Ac-Val-ACHPA-Leu-Phe-NH₂]
## Result Criterion not met

----------
HIV protease (Human immunodeficiency virus type 1 group M subtype B, UniProt P04585) measurements of pIC50, listed per entry.
pIC50 field: float, defined as -log10 of concentration (mol/L).

Worked set:
CC(=O)N[C@H](C(=O)N[C@@H](CC1CCCCC1)[C@@H](O)CC(=O)N[C@@H](CC(C)C)C(=O)N[C@@H](Cc1ccccc1)C(N)=O)C(C)(C)C [Example 11, Ac-Tbg-ACHPA-Leu-Phe-NH₂] ... 6.70
CC(C)C[C@H](NC(=O)C[C@H](O)[C@H](CC1CCCCC1)NC(=O)[C@@H](NC(=O)CCc1ccc(OCC(=O)OCc2ccccc2)cc1)C(C)C)C(=O)N[C@@H](Cc1ccccc1)C(N)=O [Example 2] ... 6.77
CC(=O)N[C@H](C(=O)N[C@H](CN[C@@H](CC(C)C)C(=O)N[C@H](C(=O)N[C@@H](COCc1ccccc1)C(N)=O)C(C)C)Cc1ccccc1)C(C)C [Example 22, Ac-Val-Pheψ[CH₂NH]Leu-Val-Ser(OBzl)-NH₂] ... 7.54

## Task Quick check: pIC50 of CC(C)C[C@H](NC(=O)C[C@H](O)[C@H](CC1CCCCC1)NC(=O)[C@@H](NC(=O)[C@@H](O)CO)C(C)C)C(=O)N[C@@H](Cc1ccccc1)C(N)=O [Example 4] ?
## Result 6.74
